Tested on: CP201
assayComment: qHTS profiling for inhibitors of Plasmodium falciparum proliferation (AID 504749); further: nearly all actives have a fitted effect of over 60% in size
testSettings: P. falciparum in erythrocytes, SYBR Green DNA, 72 h; series mostly up to 12.8 µM
Results filed as inconclusive are left out. The source made the active and inactive calls. The call rests on the fitted dose curve; in most records, active means well fitted inhibition curve with a large enough effect; inconclusive means small, poorly fitted or top-dose-only effect; inactive means flat fitted curve, though single readings scatter.
valueKind: outcome

CNC[C@H](O)c1ccc(OC(=O)C(C)(C)C)c(OC(=O)C(C)(C)C)c1 : inactive
CC1(C)S[C@@H]2[C@H](NC(=O)[C@@H](N)c3ccccc3)C(=O)N2[C@H]1C(=O)O[C@H]1OC(=O)c2ccccc21 : inactive
NC[C@@H]1O[C@H](O[C@@H]2[C@H](O[C@@H]3O[C@H](CO)[C@@H](O)[C@@H]3O)[C@@H](O)[C@@H](N)C[C@H]2N)[C@@H](N)[C@H](O)[C@@H]1O : inactive

====

Tested on: CP185
assayComment: qHTS profiling for inhibitors of Plasmodium falciparum proliferation (AID 504749); further: nearly all actives have a fitted effect of over 60% in size
testSettings: P. falciparum in erythrocytes, SYBR Green DNA, 72 h; series mostly up to 12.8 µM
Inconclusive results are not listed. The source made the active and inactive calls. The call rests on the fitted dose curve; in most records, active means well fitted inhibition curve with a large enough effect; inconclusive means small, poorly fitted or top-dose-only effect; inactive means flat fitted curve, though single readings scatter.
Thanks in advance; please answer with one of these: yes for active, no for inactive

Query: Would you mind telling me which call this test gave COC(=O)C1=C(C)NC(C)=C(C(=O)OC(C)C)[C@H]1c1cccc2nonc12 ?
Response: no

Query: Would you mind telling me which call this test gave C[C@]12C=CC(=O)C=C1CCC1C2C(O)C[C@]2(C)C1CC[C@]2(O)C(=O)CO (stereo partly specified) ?
Response: no

Query: Would you mind telling me which call this test gave CCCCC[C@H](O)/C=C\[C@@H]1[C@H](O)CC(=O)[C@@H]1CCCCCCC(=O)O ?
Response: no

Query: Would you mind telling me which call this test gave CC(=O)[C@]1(O)CCC2C3C=C(Cl)C4=CC(=O)C5CC5[C@@]4(C)C3CC[C@]21C (stereo partly specified) ?
Response: no

Query: Would you mind telling me which call this test gave CN(C/C=C\c1ccccc1)Cc1cccc2ccccc12 ?
Response: no

Query: Would you mind telling me which call this test gave CC1(C)OC2CO[C@]3(COS(N)(=O)=O)OC(C)(C)OC3C2O1 (stereo partly specified) ?
Response: no

Query: Would you mind telling me which call this test gave Cn1nnnc1SCC1=C(C(=O)O)N2C(=O)[C@@H](NC(=O)[C@@H](O)c3ccccc3)[C@@H]2SC1 ?
Response: no

Query: Would you mind telling me which call this test gave CN(C)CCc1c[nH]c2ccc(CC3COC(=O)N3)cc12 (stereo unspecified) ?
Response: no

Query: Would you mind telling me which call this test gave CCN(CC)[C@@H](C)CN1c2ccccc2Sc2ccccc21 ?
Response: no

Query: Would you mind telling me which call this test gave CC1(C)S[C@H]2C(NC(=O)[C@@H](N)c3ccc(O)cc3)C(=O)N2[C@@H]1C(=O)O (stereo partly specified) ?
Response: no

Query: Would you mind telling me which call this test gave OCC1OC([S-])[C@H](O)C(O)C1O.[Au+] (stereo partly specified) ?
Response: no

Query: Would you mind telling me which call this test gave C[C@]1(c2ccccc2)OC(C(=O)O)=CC1=O ?
Response: no

Query: Would you mind telling me which call this test gave CC[C@H](Cc1c(I)cc(I)c(N)c1I)C(=O)O ?
Response: no

Query: Would you mind telling me which call this test gave NC(C(=O)O)[C@@H]1CC(Cl)=NO1 (stereo partly specified) ?
Response: yes

Query: Would you mind telling me which call this test gave C[C@@]12C=CC(=O)C=C1CCC1C3CC(O)[C@@](O)(C(=O)CO)[C@]3(C)CC(O)[C@]12F (stereo partly specified) ?
Response: no

Query: Would you mind telling me which call this test gave CC(=O)[C@@]1(O)CC[C@H]2[C@H]3C[C@@H](C)C4=CC(=O)C=C[C@]4(C)[C@@]3(F)[C@@H](O)C[C@]21C ?
Response: no

Query: Would you mind telling me which call this test gave CC(=O)OCC(=O)[C@@]1(O)[C@H](C)C[C@@H]2[C@H]3CCC4=CC(=O)C=C[C@]4(C)[C@]3(F)[C@@H](O)C[C@@]21C ?
Response: no

Query: Would you mind telling me which call this test gave COc1ccc(CC(N)C(=O)NC2C(CO)OC(n3cnc4c(N(C)C)ncnc43)C2O)cc1 (stereo unspecified) ?
Response: yes

Query: Would you mind telling me which call this test gave CCC(C)C(=O)OC1CC(O)C=C2C=CC(C)C(CCC(O)CC(O)CC(=O)O)C21 (stereo unspecified) ?
Response: no

Query: Would you mind telling me which call this test gave CCC(=O)[C@@]1(C)[C@H](C)C[C@@H]2[C@@H]3CCC4=CC(=O)C=C[C@@]4(C)[C@H]3[C@H](O)C[C@]21C ?
Response: no

Query: Would you mind telling me which call this test gave CC(C)(C)NC[C@H](O)COc1cccc2c1C[C@@H](O)[C@@H](O)C2 ?
Response: no

====

subjectOfTest: Rap guanine nucleotide exchange factor 3 (Homo sapiens) (UniProt O95398)
assayComment: Counterscreen qHTS for agonist of cAMP-regulated guanine nucleotide exchange factor 3 (EPAC1) (AID 1645889); further: % of control where 0% means no effect; nearly all actives have a fitted effect of over 40% in size
testSettings: EPAC1 Rap1B-BODIPY-GDP exchange, fluorescence; series mostly up to 154 µM
From the text: Assay Provider (PI): Xiaodong Cheng Ph.D. The University of Texas Medical Branch, […], TX MLPCN Grant: NS066510 In multi-cellular eukaryotic organisms, the effects of cAMP are transduced by two ubiquitously-expressed intracellular cAMP receptors, the classic protein kinase A/cAMP-dependent protein kinase (PKA/cAPK) and the more recently discovered exchange protein directly activated by cAMP/cAMP-regulated guanine nucleotide exchange factor (EPAC/cAMP-GEF). […]
Results filed as inconclusive are left out. The source made the active and inactive calls. The call rests on the fitted dose curve; in most records, active means well fitted activation curve with a large enough effect; inconclusive means small, poorly fitted or top-dose-only effect, or another doubt; inactive means no such curve, though single readings can be large or run the other way.
valueKind: activation

Study these solved cases before continuing.
COC(=O)c1cc(OC)nc2ccc(Br)cc12 : inactive
CCOC(=O)Cn1c(=O)oc2cc(S(=O)(=O)Nc3c(C)cc(C)cc3C)ccc21 : 25.1% [at 30.8 µM] (inactive)
Cc1cccc(NC(=S)NC(=O)/C=C/c2ccco2)c1 : inactive
Cc1nc(=O)c(-c2ccccc2)c(C)n1CCCCCC(=O)O : 4.21% [at 30.8 µM] (inactive)
C(=N\N1CCN(C(c2ccccc2)c2ccccc2)CC1)/c1ccc2c(c1)OCO2 : inactive
c1ccc(OCCCn2ccnc2)cc1 : inactive
CCc1ccccc1N(CC(=O)NCCc1ccccc1)C(=O)CCC(=O)Nc1ccccn1 : inactive
Cn1c2ccccc2c2cc(/C=N/NC(=O)c3cc(O)ccc3O)ccc21 : 29.4% [at 30.8 µM] (inactive)
CCOc1c(O)ccc(/C=C2\SC(=S)NC2=O)c1[N+](=O)[O-] : inactive
CSc1ccccc1NC(=O)COc1ccccc1C : 4.86% [at 30.8 µM] (inactive)

Query: What does the data say about its activation? Entry: Cc1ccc(N2NC(=O)/C(=C\c3cc4c(cc3[N+](=O)[O-])OCO4)C2=O)cc1C
Response: inactive

Query: What does the data say about its activation? Entry: COc1ccc(CCNC(=O)c2c(C)nn(-c3ccc(F)cc3)c2-n2cccc2)cc1OC
Response: inactive

Query: What does the data say about its activation? Entry: O=C(Nc1ccncc1)c1ccc2ncsc2c1
Response: inactive

====

Tested on: CP266
assayComment: qHTS profiling for inhibitors of Plasmodium falciparum proliferation (AID 504749); further: nearly all actives have a fitted effect of over 60% in size; further: potency means the concentration at half of the fitted maximal effect
testSettings: P. falciparum in erythrocytes, SYBR Green DNA, 72 h; series mostly up to 12.8 µM
Method: NIH National Institute of Allergy and Infectious Diseases [NIAID] NIH Chemical Genomics Center [NCGC] […] Because mature erythrocytes lack DNA, only Plasmodium-derived DNA is detected. NCGC Assay Protocol Summary: The SYBR Green viability assay was adapted from a method described previously (Plouffe et al., 2008). […] The following morning, fluorescence intensity at 485(14) nm excitation and 535(25) nm emission wavelengths was measured on an EnVision (Perkin Elmer) plate reader. […]
Records with an inconclusive call do not appear. The source made the active and inactive calls. Calls follow the shape of the dose curve; as a rule, active = well fitted inhibition curve with a large enough effect; inconclusive = small, poorly fitted or top-dose-only effect; inactive = flat fitted curve, though single readings scatter.
valueKind: Potency

Study these solved cases before continuing.
NCc1ccccc1CC(=O)N[C@@H]1C(=O)N2C(C(=O)O)=C(CSc3nnnn3CC(=O)O)CS[C@@H]12 : inactive
NS(=O)(=O)c1cc2c(cc1C(F)(F)F)N[C@H](Cc1ccccc1)NS2(=O)=O : inactive
COC1C=CO[C@@]2(C)Oc3c(C)c(O)c4c(O)c(c(C=NN5CCN(C)CC5)c(O)c4c3C2=O)NC(=O)/C(C)=C\C=CC(C)C(O)[C@@H](C)C(O)C(C)[C@H](OC(C)=O)C1C (stereo partly drawn) : 6.75 µM (active)
CN1CCC[C@@H](CC2c3ccccc3Sc3ccccc32)C1 : inactive
CCCC(=O)O[C@]1(C(=O)CO)CCC2[C@@H]3CCC4=CC(=O)CC[C@]4(C)C3C(O)C[C@]21C (stereo partly drawn) : inactive

Query: What does the data say about its Potency? Entry: NC(C(=O)O)[C@@H]1CC(Cl)=NO1 (stereo partly drawn)
Response: 3.79 µM (active)

Query: What does the data say about its Potency? Entry: COc1cc2nc(N3CCN(C(=O)[C@@H]4COc5ccccc5O4)CC3)nc(N)c2cc1OC
Response: inactive

Query: What does the data say about its Potency? Entry: COc1ccc([C@@H]2CC(=O)c3c(O)cc(O[C@H]4O[C@@H](CO[C@H]5O[C@@H](C)[C@@H](O)[C@@H](O)[C@@H]5O)[C@@H](O)[C@@H](O)[C@@H]4O)cc3O2)cc1O
Response: inactive

The measured values listed here are drawn from PubChem BioAssay (NCATS).
